- measured on: HLA-B*5301 (human)
- assay comment: competition vs 125I probe peptide, purified HLA

>  <binder>
FPRALVETSYI [MAGE3.274.F1I11 FPRALVETSYI]

>  <IC50>
620 nM

$$$$
>  <binder>
FPRALIETSYV [MAGE2.274.F1 FPRALIETSYV]

>  <IC50>
7750 nM

$$$$
>  <binder>
FPRALIETSYI [MAGE2.274.F1I11 FPRALIETSYI]

>  <IC50>
465 nM

$$$$
>  <binder>
FPTTMNYPL [MAGE3.71.F1 FPTTMNYPL]

>  <IC50>
39 nM

$$$$
>  <binder>
FPHISYPPI [MAGE3.296.F1I9 FPHISYPPI]

>  <IC50>
233 nM

$$$$
>  <binder>
FPLWSQSI [MAGE3.77.F1 FPLWSQSI]

>  <IC50>
245 nM

$$$$
>  <binder>
FPQGASSI [MAGE3.64.F1 FPQGASSI]

>  <IC50>
3000 nM

$$$$
>  <binder>
FPKAGLLI [MAGE3.196.F1I8 FPKAGLLI]

>  <IC50>
775 nM

$$$$
